// provenance: patent US20210388087A1

- system_name: T1, CD3 epsilon homodimer protein (UniProt P07766 23-126)
- T1 construct: also called CD3 (CD3 epsilon)
- protocol: SPR, antibody over immobilised CD3e homodimer;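 also: SPR at 25 °C with CD3 epsilon homodimer amine-coupled to a CM4 sensor chip and antibody flowed over as analyte in HBS-EP+ running buffer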

binder	KD ratio to GLS3000
CE115HA000/GLS3000 N30T (antibody, IgG1, name in Kabat numbering, V domains shown, one-arm IgG1) VH: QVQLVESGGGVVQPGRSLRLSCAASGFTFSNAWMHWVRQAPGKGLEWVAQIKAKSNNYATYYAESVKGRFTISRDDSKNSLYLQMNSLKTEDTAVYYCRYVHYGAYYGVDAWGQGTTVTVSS VL: DIVMTQSPLSLPVTPGEPASISCRSSQSLVHSNRTTYLHWYQQKPGQAPRLLIYKVSNRFSGVPDRFSGSGSGTDFTLKISRVEAEDVGVYYCGQGTQVPYTFGQGTKLEIK	12.7
CE115HA000/GLS3000 Q93P (antibody, IgG1, name in Kabat numbering, V domains shown, one-arm IgG1) VH: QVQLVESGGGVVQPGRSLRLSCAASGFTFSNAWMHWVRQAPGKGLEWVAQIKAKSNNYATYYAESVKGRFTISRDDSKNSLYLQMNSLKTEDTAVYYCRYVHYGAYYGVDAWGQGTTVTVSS VL: DIVMTQSPLSLPVTPGEPASISCRSSQSLVHSNRNTYLHWYQQKPGQAPRLLIYKVSNRFSGVPDRFSGSGSGTDFTLKISRVEAEDVGVYYCGQGTPVPYTFGQGTKLEIK	39.5
CE115HA000/GLS3000 N28A (antibody, IgG1, name in Kabat numbering, V domains shown, one-arm IgG1) VH: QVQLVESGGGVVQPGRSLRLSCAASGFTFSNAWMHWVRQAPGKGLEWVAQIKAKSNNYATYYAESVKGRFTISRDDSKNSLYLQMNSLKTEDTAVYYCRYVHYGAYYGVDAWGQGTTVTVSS VL: DIVMTQSPLSLPVTPGEPASISCRSSQSLVHSARNTYLHWYQQKPGQAPRLLIYKVSNRFSGVPDRFSGSGSGTDFTLKISRVEAEDVGVYYCGQGTQVPYTFGQGTKLEIK	4.18
CE115HA000/GLS3000 V27cY (antibody, IgG1, name in Kabat numbering, V domains shown, one-arm IgG1) VH: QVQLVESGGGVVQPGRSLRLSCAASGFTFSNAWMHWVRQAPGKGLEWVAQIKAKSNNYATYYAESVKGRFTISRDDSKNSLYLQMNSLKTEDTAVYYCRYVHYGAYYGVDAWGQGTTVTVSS VL: DIVMTQSPLSLPVTPGEPASISCRSSQSLYHSNRNTYLHWYQQKPGQAPRLLIYKVSNRFSGVPDRFSGSGSGTDFTLKISRVEAEDVGVYYCGQGTQVPYTFGQGTKLEIK	1.25
CE115HA000/GLS3000 G91Y (antibody, IgG1, name in Kabat numbering, V domains shown, one-arm IgG1) VH: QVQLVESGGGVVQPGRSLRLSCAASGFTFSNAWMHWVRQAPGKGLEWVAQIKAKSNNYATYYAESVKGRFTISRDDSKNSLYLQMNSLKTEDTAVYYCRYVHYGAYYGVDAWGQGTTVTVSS VL: DIVMTQSPLSLPVTPGEPASISCRSSQSLVHSNRNTYLHWYQQKPGQAPRLLIYKVSNRFSGVPDRFSGSGSGTDFTLKISRVEAEDVGVYYCGQYTQVPYTFGQGTKLEIK	33.8
